All values here come from patent US9028845B2.

Below: a set of entries, each annotated with reported IFN-α (pg/ml) 28066.
System: human PBMCs
Assay: Human PBMC cytokine response assay (IFN-γ and IFN-α in cell-free medium by ELISA), with or without cPLGA
Type: cell-based
Settings: donor 28066; 20 ug/ml, 24 h; + PLGA = premixed with 100 μg/ml cPLGA

- SUBSTANCE: "5′-TCGTCG-3′-C12-5′-ACGTTCG-3′-C12-5′-AGATGAT-3′ [Compound C-19]"
  TARGET_OR_TEST_SYSTEM: "human PBMCs"
  IFN-α (pg/ml) 28066 (pg/mL): 1
- SUBSTANCE: "5′-TCGTCG-3′-HEG-5′-AACGTT-3′-HEG-5′-AGATGAT-3′ [Compound C-23]"
  TARGET_OR_TEST_SYSTEM: "human PBMCs"
  IFN-α (pg/ml) 28066 (pg/mL): 3
- SUBSTANCE: "(5′-TCGTCGA-3′)2-glycerol-5′-AACGTTC-3′ [Compound C-27]"
  TARGET_OR_TEST_SYSTEM: "human PBMCs"
  IFN-α (pg/ml) 28066 (pg/mL): 0
- SUBSTANCE: "5′-TCGTCG-3′ [Compound P-2, reference compound]"
  TARGET_OR_TEST_SYSTEM: "human PBMCs"
  IFN-α (pg/ml) 28066 (pg/mL): 3
- SUBSTANCE: "5′-AGATGAT-3′ [Compound P-4, reference compound]"
  TARGET_OR_TEST_SYSTEM: "human PBMCs"
  IFN-α (pg/ml) 28066 (pg/mL): 0
